The reported measurements were obtained from patent US20230250181A1.

pKd: recorded values
Target: T1, recombinant biotinylated PD1/CD279 protein from Biolegend (789406) (UniProt Q15116 25-167, limits assumed, biotinylated)
T1 construct: also called PD1/CD279 ligand
T1 sequence (Q15116 25-167 limits assumed): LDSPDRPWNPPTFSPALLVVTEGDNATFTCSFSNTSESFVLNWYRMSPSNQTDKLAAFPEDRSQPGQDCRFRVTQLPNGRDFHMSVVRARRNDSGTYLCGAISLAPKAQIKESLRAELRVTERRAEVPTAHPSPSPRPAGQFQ
Experiment: ELISA; antibody coated on plate, biotinylated PD-1 titrated, streptavidin-HRP
In textbook form, pKd equals minus log to base ten of the concentration in mol/L.

Past entries and their recorded results:
1) Composition H (antibody, not fully specified; Composition AB: Nle at 23, 39, 46; Hse at 41, 71, 104; ~0.5 kDa PEG on Y45; 0.5 kDa PEG capped with azide on F42Y, reacted with DBCO on K248 (EU numbering) of the antibody's Fc region, Immunocytokine; linker at K248 of the Fc region, DAR 1; also called LZM-009 conjugated to Composition AB, DAR 1, K248) VH: QVQLVQSGAEVKKPGASVKVSCKASGYTFTSYYMYWVRQAPGQGLEWMGGVNPSNGGTNFNEKFKSRVTITADKSTSTAYMELSSLRSEDTAVYYCARRDYRYDMGFDYWGQGTTVTVSS VL: EIVLTQSPATLSLSPGERATISCRASKGVSTSGYSYLHWYQQKPGQAPRLLIYLASYLESGVPARFSGSGSGTDFTLTISSLEPEDFATYYCQHSRELPLTFGTGTKVEIK APTSSSTKKTQLQLEHLLLDLQXILNGINNYKNPKLTRXLXYKFYXPKKATELKHLQCLEEELKPLEEVLXLAQSKNFHLRPRDLISNINVIVLELKGSETTFXCEYADETATIVEFLNRWITFSQSIISTLT = 4.43
2) Composition J (antibody, not fully specified; Composition AB: Nle at 23, 39, 46; Hse at 41, 71, 104; ~0.5 kDa PEG on Y45; 0.5 kDa PEG capped with azide on F42Y, reacted with DBCO on K288 (EU numbering) of the antibody's Fc region, Immunocytokine; linker at K288 of the Fc region, DAR 1; also called LZM-009 conjugated to Composition AB, DAR 1, K288) VH: QVQLVQSGAEVKKPGASVKVSCKASGYTFTSYYMYWVRQAPGQGLEWMGGVNPSNGGTNFNEKFKSRVTITADKSTSTAYMELSSLRSEDTAVYYCARRDYRYDMGFDYWGQGTTVTVSS VL: EIVLTQSPATLSLSPGERATISCRASKGVSTSGYSYLHWYQQKPGQAPRLLIYLASYLESGVPARFSGSGSGTDFTLTISSLEPEDFATYYCQHSRELPLTFGTGTKVEIK APTSSSTKKTQLQLEHLLLDLQXILNGINNYKNPKLTRXLXYKFYXPKKATELKHLQCLEEELKPLEEVLXLAQSKNFHLRPRDLISNINVIVLELKGSETTFXCEYADETATIVEFLNRWITFSQSIISTLT = 4.57
3) Composition K (antibody, not fully specified; Composition AB: Nle at 23, 39, 46; Hse at 41, 71, 104; ~0.5 kDa PEG on Y45; 0.5 kDa PEG capped with azide on F42Y, reacted with DBCO on K288 (EU numbering) of the antibody's Fc region, Immunocytokine; linker at K288 of the Fc region) VH: QVQLVQSGAEVKKPGASVKVSCKASGYTFTSYYMYWVRQAPGQGLEWMGGVNPSNGGTNFNEKFKSRVTITADKSTSTAYMELSSLRSEDTAVYYCARRDYRYDMGFDYWGQGTTVTVSS VL: EIVLTQSPATLSLSPGERATISCRASKGVSTSGYSYLHWYQQKPGQAPRLLIYLASYLESGVPARFSGSGSGTDFTLTISSLEPEDFATYYCQHSRELPLTFGTGTKVEIK APTSSSTKKTQLQLEHLLLDLQXILNGINNYKNPKLTRXLXYKFYXPKKATELKHLQCLEEELKPLEEVLXLAQSKNFHLRPRDLISNINVIVLELKGSETTFXCEYADETATIVEFLNRWITFSQSIISTLT = 4.39

// pKd lookup, key: LZM-009 (antibody, V domains shown) VH: QVQLVQSGAEVKKPGASVKVSCKASGYTFTSYYMYWVRQAPGQGLEWMGGVNPSNGGTNFNEKFKSRVTITADKSTSTAYMELSSLRSEDTAVYYCARRDYRYDMGFDYWGQGTTVTVSS VL: EIVLTQSPATLSLSPGERATISCRASKGVSTSGYSYLHWYQQKPGQAPRLLIYLASYLESGVPARFSGSGSGTDFTLTISSLEPEDFATYYCQHSRELPLTFGTGTKVEIK
4.46
